# Test system: human CD33 A261S (human, UniProt P20138 18-364)
# Sequence (P20138 18-364 A261S limits assumed): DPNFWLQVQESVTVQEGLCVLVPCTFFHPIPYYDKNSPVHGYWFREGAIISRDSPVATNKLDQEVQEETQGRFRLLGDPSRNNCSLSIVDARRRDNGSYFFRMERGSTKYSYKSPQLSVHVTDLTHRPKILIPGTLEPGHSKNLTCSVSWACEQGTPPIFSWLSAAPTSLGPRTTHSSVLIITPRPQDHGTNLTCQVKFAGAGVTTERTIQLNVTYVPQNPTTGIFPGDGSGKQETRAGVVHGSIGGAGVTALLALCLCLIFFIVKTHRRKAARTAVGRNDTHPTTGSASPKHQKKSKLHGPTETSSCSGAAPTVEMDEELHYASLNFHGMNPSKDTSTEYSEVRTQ
# Assay protocol: alanine scan, flow cytometry, HEK293-T;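 also: antibody binding to each alanine-substituted CD33 mutant expressed transiently in HEK293-T, read as fluorescence minus background, mean of duplicates, relative to wild-type CD33 set as 100%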
Measured endpoint: Mean % WT Binding (% WT binding)
Report the value in % WT binding with no unit label.

INPUT: Endpoint output: Mean % WT Binding of Refmab #4 (antibody, V domains shown, The alanine scan used IgG or Fab) VH: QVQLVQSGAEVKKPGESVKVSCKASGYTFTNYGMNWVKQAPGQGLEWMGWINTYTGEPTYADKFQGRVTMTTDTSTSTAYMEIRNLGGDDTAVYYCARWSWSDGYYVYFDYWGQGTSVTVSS VL: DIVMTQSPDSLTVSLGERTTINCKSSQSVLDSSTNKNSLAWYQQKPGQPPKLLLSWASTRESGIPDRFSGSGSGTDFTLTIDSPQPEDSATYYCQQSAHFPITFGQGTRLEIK . Value?
OUTPUT: 65.8

INPUT: Follow-up item: Refmab #1 (antibody, V domains shown, The alanine scan used IgG or Fab; also called hP67.6) VH: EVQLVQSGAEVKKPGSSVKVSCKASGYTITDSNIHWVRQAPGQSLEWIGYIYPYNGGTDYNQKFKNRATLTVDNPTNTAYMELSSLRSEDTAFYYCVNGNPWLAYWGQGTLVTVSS VL: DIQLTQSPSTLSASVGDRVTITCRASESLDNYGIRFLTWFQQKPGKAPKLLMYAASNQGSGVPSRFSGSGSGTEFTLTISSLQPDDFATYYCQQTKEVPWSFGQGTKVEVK
OUTPUT: 84.1

INPUT: Follow-up item: Refmab #2 (antibody, V domains shown, The alanine scan used IgG or Fab) VH: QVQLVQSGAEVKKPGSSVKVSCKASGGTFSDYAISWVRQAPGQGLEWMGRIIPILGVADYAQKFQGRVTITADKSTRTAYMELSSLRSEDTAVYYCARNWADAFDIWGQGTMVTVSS VL: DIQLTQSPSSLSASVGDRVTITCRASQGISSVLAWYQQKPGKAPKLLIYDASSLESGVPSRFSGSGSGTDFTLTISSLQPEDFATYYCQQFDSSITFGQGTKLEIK
OUTPUT: 100

INPUT: Follow-up item: Refmab #3 (antibody, V domains shown, The alanine scan used IgG or Fab) VH: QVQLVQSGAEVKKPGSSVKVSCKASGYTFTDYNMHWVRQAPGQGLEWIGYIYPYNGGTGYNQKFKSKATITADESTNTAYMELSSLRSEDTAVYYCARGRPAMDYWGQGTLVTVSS VL: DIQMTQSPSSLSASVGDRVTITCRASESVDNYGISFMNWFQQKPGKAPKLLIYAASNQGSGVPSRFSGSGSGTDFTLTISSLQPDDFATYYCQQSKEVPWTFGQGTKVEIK
OUTPUT: 121
